Hey, just so you know, these numbers are from ChEMBL document CHEMBL1629492.

- Species: Rattus norvegicus
- protocol-notes: Selectivity ratio of Ki for alpha1A adrenoceptor in Wistar rat vas deferens to Ki for Alpha-1B adrenoceptor in Wistar rat spleen
- Format: tissue-based
For each record, write down the corresponding Selectivity ratio.
Answer with a number only.

Q: Selectivity ratio for `COc1ccc(C[C@@H](C)NCCOc2ccccc2OCc2ccccc2)cc1S(N)(=O)=O` ?
Result: 12

Q: I'd like to know its Selectivity ratio. The compound in question is `COc1ccc(C[C@@H](C)NC[C@@H]2Oc3ccccc3O[C@@H]2C)cc1S(N)(=O)=O`
Result: 1

Q: Using the record for `COc1ccc(C[C@@H](C)NCCOc2ccccc2OCC(F)(F)F)cc1S(N)(=O)=O` , report its Selectivity ratio.
Result: 4

Q: Report Selectivity ratio for `COc1ccc(C[C@@H](C)NC[C@H]2Oc3ccccc3O[C@H]2C)cc1S(N)(=O)=O` please.
Result: 1

Q: Look up Selectivity ratio: `COc1ccc(C[C@@H](C)NCCOc2ccccc2OC(C)C)cc1S(N)(=O)=O`
Result: 7

* * *

- target-entity: UniProt:P35368
- Sequence (P35368 whole entry): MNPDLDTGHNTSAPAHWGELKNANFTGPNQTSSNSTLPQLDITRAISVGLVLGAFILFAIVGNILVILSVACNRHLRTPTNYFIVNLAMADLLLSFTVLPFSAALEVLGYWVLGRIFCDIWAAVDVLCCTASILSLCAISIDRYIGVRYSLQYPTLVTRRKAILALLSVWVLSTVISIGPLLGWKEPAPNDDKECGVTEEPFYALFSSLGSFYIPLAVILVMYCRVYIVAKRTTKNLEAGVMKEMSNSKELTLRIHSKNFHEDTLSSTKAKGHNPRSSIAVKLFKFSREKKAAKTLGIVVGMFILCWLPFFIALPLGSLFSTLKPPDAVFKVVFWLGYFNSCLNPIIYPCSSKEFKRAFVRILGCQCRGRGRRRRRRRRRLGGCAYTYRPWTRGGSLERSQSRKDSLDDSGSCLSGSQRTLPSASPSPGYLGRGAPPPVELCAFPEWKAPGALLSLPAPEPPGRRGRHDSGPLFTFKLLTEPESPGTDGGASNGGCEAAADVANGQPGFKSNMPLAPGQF
Provide the recorded Ki for the entries that follow.
Provide only the numeric value, understood in nM.

Q: GET /values?readout=Ki&item= `COc1ccc(C[C@@H](C)NCCOc2ccccc2OC(C)C)cc1S(N)(=O)=O`
Result: 1.91

Q: What value of Ki has been reported for the following compound? `COc1ccc(C[C@@H](C)NC[C@H]2Oc3ccccc3O[C@H]2C)cc1S(N)(=O)=O`
Result: 67.6

Q: Any idea what Ki was measured for `CCOc1ccccc1OCCN[C@H](C)Cc1ccc(OC)c(S(N)(=O)=O)c1` ?
Result: 0.631

Q: # input compound: `COc1ccc(C[C@@H](C)NCCOc2ccccc2OCc2ccccc2)cc1S(N)(=O)=O` ; wanted: its Ki
Result: 2.09

Q: Quick one: Ki for `COc1ccc(C[C@@H](C)NCCOc2ccccc2OCC(F)(F)F)cc1S(N)(=O)=O` ?
Result: 5.5

Q: Look up Ki: `COc1ccc(C[C@@H](C)NC[C@@H]2Oc3ccccc3O[C@@H]2C)cc1S(N)(=O)=O`
Result: 31.6

* * *

- target-entity: Alpha-1B adrenergic receptor (Rattus norvegicus)
- protocol-notes: Antagonist activity at Alpha-1B adrenoceptor in Wistar rat spleen assessed as phenylephrine induced contractions after 30 mins
- Assay type: functional, tissue-based
Please provide measured pKb for the entries that follow.
// return just the number, without any unit appended

Q: Hello, I am looking for reported pKb with Alpha-1B adrenergic receptor (Rattus norvegicus) for `COc1ccc(C[C@@H](C)NCCOc2ccccc2OCc2ccccc2)cc1S(N)(=O)=O` . Could you help?
Result: 8.57

Q: Please provide the recorded pKb for `COc1ccc(C[C@@H](C)NCCOc2ccccc2OC(C)C)cc1S(N)(=O)=O` , tested on Alpha-1B adrenergic receptor (Rattus norvegicus).
Result: 8.81

Q: Reported pKb for Alpha-1B adrenergic receptor (Rattus norvegicus), given CCOc1ccccc1OCCN[C@H](C)Cc1ccc(OC)c(S(N)(=O)=O)c1 [TAMSULOSIN] ?
Result: 9.3

Q: Look up pKb with Alpha-1B adrenergic receptor (Rattus norvegicus) for this compound: `COc1ccc(C[C@@H](C)NC[C@@H]2Oc3ccccc3O[C@@H]2C)cc1S(N)(=O)=O`
Result: 7.76
